Just for reference, PubChem BioAssay AID1476 is where these values come from.

Answer each item with its documented max response, negative = inhibition.
tested-on: Cruzipain (Trypanosoma cruzi) (UniProt P25779)
Sequence (P25779 123-467 limits assumed): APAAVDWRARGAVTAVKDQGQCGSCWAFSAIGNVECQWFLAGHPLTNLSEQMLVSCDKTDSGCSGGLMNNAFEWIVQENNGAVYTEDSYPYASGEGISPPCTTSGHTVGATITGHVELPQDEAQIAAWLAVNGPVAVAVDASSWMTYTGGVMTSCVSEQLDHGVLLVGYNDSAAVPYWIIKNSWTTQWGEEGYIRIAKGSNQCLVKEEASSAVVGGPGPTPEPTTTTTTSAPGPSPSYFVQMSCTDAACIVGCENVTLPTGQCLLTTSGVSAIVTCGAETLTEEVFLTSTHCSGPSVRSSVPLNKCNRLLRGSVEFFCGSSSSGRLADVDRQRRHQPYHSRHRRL
test-summary: qHTS Assay for Promiscuous and Specific Inhibitors of Cruzain (without detergent);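 further: plate controls were enzyme without inhibitor for no effect and buffer without enzyme for full effect; nearly all actives have a fitted effect of over 40% in size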
condition-parameters: purified cruzain, Z-FR-AMC fluorescence, no detergent
Among all 200,000 compounds or so, about 4,500 (2.2%) were called active. Another 12% or so got no clear call; they are omitted. The sample holds actives, similar compounds and a random draw of the others, so the mix is not that of the screen.
Record the value in %, omitting the unit from your answer.

# get_value(readout= max response, negative = inhibition, system= Cruzipain (Trypanosoma cruzi) (UniProt P25779)) for "COc1ccc(OCCCn2c(C)nc3cc(C)c(C)cc32)cc1" 11.2

Request: "Cc1ccc(-c2nc3cccc(C)n3c2Nc2ccc3c(c2)OCCO3)cc1" -0.169

Request: COc1c(Cl)cc(C(=O)N(Cc2ccccc2F)C2CCS(=O)(=O)C2)cc1Cl (stereo not given) 6.06

Request: "CCCCC(=O)N/N=C(\C)CC(=O)Nc1cc(Cl)ccc1OC" 7.24

Request: "COc1cc(/C=N/O)ccc1OCc1ccc([N+](=O)[O-])cc1" 0.78

Request: "Cc1ccc(C)c(Cn2c(C)c(CNCc3ccc(F)cc3)c(C(=O)O)c2C)c1" 16.1

Request: "O=C(Cn1c(=O)n(Cc2ccccc2)c(=O)c2sc3ccccc3c21)Nc1ccccc1F" 9.77

Request: "COc1ccc(Cl)cc1NC(=O)CCC(=O)c1ccc(C)cc1" 4.58

Request: "CCOC(=O)C1CCN(C(=O)CSc2c3c(nc4ccc(Cl)cc24)CCCC3)CC1" -19.6

Request: "Cc1cccc(CSc2nc3ccncc3n2Cc2ccc(C(=O)O)cc2)c1" -13.3
